- Test system: TK-10
- method summary: minimum viability across doses, drug + dasatinib, relative to DMSO (fraction); higher = less growth inhibition
- reported conditions: treatment: drug + dasatinib (fixed dose, not stated); 5 days
reported metric: minimum viability across doses
Answer field: number only, no words.

COc1cc(Nc2ncc3c(n2)-c2ccc(Cl)cc2C(c2c(F)cccc2OC)=NC3)ccc1C(=O)O [MLN8237 (Alisertib)] + Cc1nc(Nc2ncc(C(=O)Nc3c(C)cccc3Cl)s2)cc(N2CCN(CCO)CC2)n1	0.392
O=C(O)c1ccc2c(c1)nc(Nc1cccc(Cl)c1)c1ccncc12 [cx-4945 (Silmitasertib)] + Cc1nc(Nc2ncc(C(=O)Nc3c(C)cccc3Cl)s2)cc(N2CCN(CCO)CC2)n1	0.645

**Query** Indicate its recorded minimum viability across doses; the molecule in question is CNC(=O)c1cc(Oc2ccc(NC(=O)Nc3ccc(Cl)c(C(F)(F)F)c3)cc2)ccn1.Cc1ccc(S(=O)(=O)O)cc1 [Sorafenib (Nexavar)] + Cc1nc(Nc2ncc(C(=O)Nc3c(C)cccc3Cl)s2)cc(N2CCN(CCO)CC2)n1
**Result** 0.471

**Query** Indicate its recorded minimum viability across doses; the molecule in question is Cc1cc(C(=O)NOCCO)c(Nc2ccc(I)cc2F)n(C)c1=O [AZD8330] + Cc1nc(Nc2ncc(C(=O)Nc3c(C)cccc3Cl)s2)cc(N2CCN(CCO)CC2)n1
**Result** 0.262

###

- Test system: ACHN
- method summary: minimum viability across doses, drug alone, relative to DMSO (fraction); higher = less growth inhibition
- reported conditions: treatment: drug alone; 5 days
reported metric: minimum viability across doses
Answer field: number only, no words.

Solved entries:
COc1cc(N2CCC(N3CCN(C)CC3)CC2)ccc1Nc1ncc(Cl)c(Nc2ccccc2S(=O)(=O)C(C)C)n1	0.237
CC[C@H](CO)Nc1nc(NCc2ccccc2)c2ncn(C(C)C)c2n1 [Roscovitine (Seliciclib, CYC202)]	0.36
Clc1ccc(C2(c3ccc(-c4cn[nH]c4)cc3)CCNCC2)cc1	0.0705

Next:
**Query** Indicate its recorded minimum viability across doses; the compound in question is "CCC[C@H](NC(=O)/C(C#N)=C/c1cccc(Br)n1)c1ccccc1"
**Result** 0.00429

###

- Tested on: A498
- method summary: AUC of dose-response viability curve, drug + dasatinib, normalised to DMSO (arbitrary (AUC of normalised viability)); higher = less growth inhibition
- reported conditions: treatment: drug + dasatinib (fixed dose, not stated); 5 days
# AUC of dose-response viability curve per entry
Answer field: number only, no words.

CC(C)NC[C@@H](C(=O)N1CCN(c2ncnc3c2[C@H](C)C[C@H]3O)CC1)c1ccc(Cl)cc1 [GDC-0068] + Cc1nc(Nc2ncc(C(=O)Nc3c(C)cccc3Cl)s2)cc(N2CCN(CCO)CC2)n1	3.38
Cc1nc(N)sc1-c1ccnc(Nc2ccc(N3CCOCC3)cc2)n1 [CYC116] + Cc1nc(Nc2ncc(C(=O)Nc3c(C)cccc3Cl)s2)cc(N2CCN(CCO)CC2)n1	3.01

**Query** Indicate its recorded AUC of dose-response viability curve; the compound in question is CNC(=O)c1c(F)cccc1Nc1nc(Nc2cc3c(cc2OC)CCN3C(=O)CN(C)C)nc2[nH]ccc12 + Cc1nc(Nc2ncc(C(=O)Nc3c(C)cccc3Cl)s2)cc(N2CCN(CCO)CC2)n1
**Result** 3.85

These measurements were taken from the supplement of paper PMC8149375.
